experiment: Confirmation Concentration-Response Assay for Identification of Small Molecule Antagonists of Stat Signaling Pathway; settings: SIE-bla cells, IL-6 stimulated, beta-lactamase ratio, 5 h
Results filed as inconclusive are left out. Calls of active or inactive are those of the source. The call rests on the fitted dose curve; in most records, active means well fitted inhibition curve with a large enough effect in the signal ratio, with a control signal flat; inconclusive means small, poorly fitted or top-dose-only effect, or effect the other way; inactive means flat fitted curve, though single readings scatter; the % refers to the signal ratio.
assayMetric: Potency

INPUT: Any idea what its Potency is? The compound is `CC(C)[C@H](CO)Nc1nc(Nc2cccc(Cl)c2)c2ncn(C(C)C)c2n1`
OUTPUT: 5.01 µM (active)

INPUT: Any idea what its Potency is? The compound is `CC[C@@H]1CN2CCc3cc(OC)c(OC)cc3[C@H]2C[C@@H]1C[C@@H]1NCCc2cc(OC)c(OC)cc21`
OUTPUT: 0.398 µM (active)

INPUT: Any idea what its Potency is? The compound is `C[C@]1(C(=O)O)[C@@H]2CC[C@@H](O2)[C@@]1(C)C(=O)O`
OUTPUT: 10 µM (active)

INPUT: Any idea what its Potency is? The compound is `CCn1cnc2c(Nc3cccc(Cl)c3)nc(N[C@@H]3CCCC[C@H]3N)nc21`
OUTPUT: 3.98 µM (active)
